Target: T1, RBFOX1 RRM (Homo sapiens, UniProt Q9NWB1 109-208)
T1 sequence: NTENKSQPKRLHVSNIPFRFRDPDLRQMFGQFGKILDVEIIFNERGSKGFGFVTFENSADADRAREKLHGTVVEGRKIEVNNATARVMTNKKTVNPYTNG
Assay: EMSA; HiTS-Eq, 1 nM pool, 10 min; buffer printed only for the single-RNA assays: 10 mM Tris pH 7.5, 150 mM NaCl, 3.4 mM EDTA, 0.001% NP-40, 30 C
Settings: tags: His6 N-terminal (pET28a); label: 5' 32P
In all, about 16,000 sequences were measured (“ka relative to ugcaugu”: median about 0.0091, highest 2% from about 0.032 on). This is one part of a sample in which the highest values are shown more often than they occur.
Measured attribute: binding signal

**Query** Entry UGGAGUU (DNA:RNA) RNA: GGGAGACCGGAAUUCAGAUUGUCCUGGAGUUUUAAAUCCCGUCGUAGCCACCA DNA 1: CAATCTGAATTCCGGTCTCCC DNA 2: TGGTGGCTACGACGGGATT : reported binding signal = ?
**Result** 0.0241 KA relative to UGCAUGU

**Query** Any idea what its binding signal is? The binder is UGGGGUG (DNA:RNA) RNA: GGGAGACCGGAAUUCAGAUUGUCCUGGGGUGUUAAAUCCCGUCGUAGCCACCA DNA 1: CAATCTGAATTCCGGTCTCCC DNA 2: TGGTGGCTACGACGGGATT
**Result** 0.0422 KA relative to UGCAUGU

**Query** Entry UGGGAAG (DNA:RNA) RNA: GGGAGACCGGAAUUCAGAUUGUCCUGGGAAGUUAAAUCCCGUCGUAGCCACCA DNA 1: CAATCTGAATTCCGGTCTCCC DNA 2: TGGTGGCTACGACGGGATT : reported binding signal = ?
**Result** 0.0374 KA relative to UGCAUGU

**Query** Form field: reported binding signal of UGGAAGU (DNA:RNA) RNA: GGGAGACCGGAAUUCAGAUUGUCCUGGAAGUUUAAAUCCCGUCGUAGCCACCA DNA 1: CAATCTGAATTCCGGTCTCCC DNA 2: TGGTGGCTACGACGGGATT
**Result** 0.0205 KA relative to UGCAUGU

The origin of these recorded values is paper PMC9911399.
